- Tested on: L. monocytogenes CBC3
- assay.remarks: Deferred antagonism assay
- Type: cell-based, Listeria monocytogenes
- Parameters: key: + = Enhanced bioactivity relative to control; − = Bioactivity equal to or less than control; NA = no activity evident
- assay.conditions: producing strain; L. mono CBC3
Ends that are not written are not given here.

substance | Bioactivity relative to control
M21P: nisin A derivative, hinge substitution M21P (ITSISLCTPGCKTGALMGCNPKTATCHCSIHVSK; cysteine pairing not given here; also: lantibiotic nisin-A; UniProt P13068 24-57, looked up, variant M21P) | −
NisinA N20F (ITSISLCTPGCKTGALMGCFMKTATCHCSIHVSK; not fully specified; also: lantibiotic nisin: dehydrated residues and thioether rings not placed; UniProt P13068 24-57, looked up, variant N20F) [nisin A derivative, hinge substitution N20F] | −

###

- System: C. sporogenes CBC5
- assay.remarks: Deferred antagonism assay
- Assay type: cell-based, Clostridium sporogenes
- Set-up: key: + = Enhanced bioactivity relative to control; − = Bioactivity equal to or less than control; NA = no activity evident
- assay.conditions: producing strain
Ends that are not written are not given here.
readout.kind: Bioactivity relative to control

substance | reported
NisinA M21I (ITSISLCTPGCKTGALMGCNIKTATCHCSIHVSK; not fully specified; also: lantibiotic: lanthionine rings and dehydro residues not placed; UniProt P13068 24-57, looked up, variant M21I) [nisin A derivative, hinge substitution M21I] | +
NisinA N20T (ITSISLCTPGCKTGALMGCTMKTATCHCSIHVSK; not fully specified; also: lantibiotic nisin: dehydrated residues and thioether rings not placed; UniProt P13068 24-57, looked up, variant N20T) [nisin A derivative, hinge substitution N20T] | +
NisinA M21K (ITSISLCTPGCKTGALMGCNKKTATCHCSIHVSK; not fully specified; also: lantibiotic nisin: dehydrated residues and thioether rings not placed; UniProt P13068 24-57, looked up, variant M21K) [nisin A derivative, hinge substitution M21K] | +

###

- Tested on: L. monocytogenes CBC1
- assay.remarks: Deferred antagonism assay
- Type: cell-based, Listeria monocytogenes
- Set-up: key: + = Enhanced bioactivity relative to control; − = Bioactivity equal to or less than control; NA = no activity evident
- assay.conditions: producing strain; L. mono CBC1
Ends that are not written are not given here.
readout.kind: Bioactivity relative to control

substance | readout.kind | reported
NisinA N20R (ITSISLCTPGCKTGALMGCRMKTATCHCSIHVSK; not fully specified; also: lantibiotic nisin: dehydrated residues and thioether rings not placed; UniProt P13068 24-57, looked up, variant N20R) [nisin A derivative, hinge substitution N20R] | Bioactivity relative to control | −
NisinA K22A (ITSISLCTPGCKTGALMGCNMATATCHCSIHVSK; not fully specified; also: lantibiotic: lanthionine rings and dehydro residues not placed; UniProt P13068 24-57, looked up, variant K22A) [nisin A derivative, hinge substitution K22A] | Bioactivity relative to control | −

###

- Test system: L. monocytogenes CBC2
- assay.remarks: Deferred antagonism assay
- Type: cell-based, Listeria monocytogenes
- Parameters: key: + = Enhanced bioactivity relative to control; − = Bioactivity equal to or less than control; NA = no activity evident
- assay.conditions: producing strain; L. mono CBC2
Ends that are not written are not given here.
readout.kind: Bioactivity relative to control

substance | reported
NisinA K22M (ITSISLCTPGCKTGALMGCNMMTATCHCSIHVSK; cysteine pairing not given here; also: lantibiotic nisin-A; UniProt P13068 24-57, looked up, variant K22M) [nisin A derivative, hinge substitution K22M] | −
M21C: nisin A derivative, hinge substitution M21C (ITSISLCTPGCKTGALMGCNCKTATCHCSIHVSK; cysteine pairing not given here; also: lantibiotic nisin-A; UniProt P13068 24-57, looked up, variant M21C) | −

All figures here come from patent US8987193B2.
